meta.source: patent US9260439B2

biological target: full-length PI3Kα (full-length p110α/p85α) (Homo sapiens (Human)); assay: PI3KA_FL fluorescence polarization kinase assay (Ki); type: biochemical; settings: 41 μM ATP
Sequence (P42336 whole entry): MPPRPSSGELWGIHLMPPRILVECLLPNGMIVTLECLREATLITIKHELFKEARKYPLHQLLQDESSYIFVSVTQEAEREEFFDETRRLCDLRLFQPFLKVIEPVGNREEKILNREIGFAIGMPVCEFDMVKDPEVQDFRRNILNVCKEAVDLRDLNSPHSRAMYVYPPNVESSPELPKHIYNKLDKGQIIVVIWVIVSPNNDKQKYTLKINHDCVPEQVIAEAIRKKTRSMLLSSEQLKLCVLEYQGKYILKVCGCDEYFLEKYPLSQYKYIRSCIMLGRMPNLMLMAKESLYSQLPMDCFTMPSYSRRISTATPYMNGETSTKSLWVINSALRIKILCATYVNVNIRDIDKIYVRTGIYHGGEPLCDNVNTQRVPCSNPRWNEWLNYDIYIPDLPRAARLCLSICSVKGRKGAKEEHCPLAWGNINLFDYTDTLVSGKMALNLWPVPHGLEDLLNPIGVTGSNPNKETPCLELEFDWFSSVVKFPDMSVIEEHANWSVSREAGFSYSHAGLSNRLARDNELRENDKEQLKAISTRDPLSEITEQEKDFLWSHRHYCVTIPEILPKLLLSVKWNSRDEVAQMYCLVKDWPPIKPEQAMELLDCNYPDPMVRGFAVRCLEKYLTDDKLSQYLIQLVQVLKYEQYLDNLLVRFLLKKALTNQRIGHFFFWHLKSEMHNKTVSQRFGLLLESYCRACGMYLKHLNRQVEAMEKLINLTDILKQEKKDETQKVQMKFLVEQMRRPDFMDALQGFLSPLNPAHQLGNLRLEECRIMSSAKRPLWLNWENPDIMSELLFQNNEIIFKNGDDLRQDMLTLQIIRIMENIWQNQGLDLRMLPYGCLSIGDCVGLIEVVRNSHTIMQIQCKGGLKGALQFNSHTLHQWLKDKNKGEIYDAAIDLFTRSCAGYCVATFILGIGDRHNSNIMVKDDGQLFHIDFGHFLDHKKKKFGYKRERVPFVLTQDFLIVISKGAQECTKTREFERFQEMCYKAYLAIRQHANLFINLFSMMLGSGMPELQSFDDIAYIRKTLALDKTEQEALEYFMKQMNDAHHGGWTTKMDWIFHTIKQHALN
Sequence (P27986 whole entry partner): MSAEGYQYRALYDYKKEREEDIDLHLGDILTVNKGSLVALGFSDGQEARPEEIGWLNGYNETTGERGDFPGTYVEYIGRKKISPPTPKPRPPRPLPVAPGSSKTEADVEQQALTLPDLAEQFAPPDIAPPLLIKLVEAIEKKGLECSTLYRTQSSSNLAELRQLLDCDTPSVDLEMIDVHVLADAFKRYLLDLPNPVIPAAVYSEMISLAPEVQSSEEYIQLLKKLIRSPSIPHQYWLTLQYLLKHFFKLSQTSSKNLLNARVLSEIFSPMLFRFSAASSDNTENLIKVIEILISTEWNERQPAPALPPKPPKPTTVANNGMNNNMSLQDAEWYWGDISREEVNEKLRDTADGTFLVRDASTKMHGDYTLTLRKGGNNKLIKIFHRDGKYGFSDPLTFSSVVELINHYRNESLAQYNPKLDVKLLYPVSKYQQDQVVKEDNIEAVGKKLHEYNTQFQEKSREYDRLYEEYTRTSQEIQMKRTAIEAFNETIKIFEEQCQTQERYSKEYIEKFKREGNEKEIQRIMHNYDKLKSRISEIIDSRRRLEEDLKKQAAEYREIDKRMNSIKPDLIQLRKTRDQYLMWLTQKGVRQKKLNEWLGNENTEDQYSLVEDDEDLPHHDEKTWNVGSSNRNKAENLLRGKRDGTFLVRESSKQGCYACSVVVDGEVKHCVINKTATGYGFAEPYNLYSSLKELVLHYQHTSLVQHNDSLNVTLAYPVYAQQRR
I'd appreciate it if you could supply PI3KA_FL Ki values for the items below.
Form entry: value (nM) — number only.

(Q) Request body: readout PI3KA_FL Ki, system full-length PI3Kα (full-length p110α/p85α) (Homo sapiens (Human)), query CC(=O)N1C[C@@H](F)[C@H](N2CCc3c(-c4cnc(N)nc4)nc(N4CCOCC4)nc32)C1 (single isomer, unassigned) [Example 66] . Return the value.
(A) 0.926

(Q) Request body: readout PI3KA_FL Ki, system full-length PI3Kα (full-length p110α/p85α) (Homo sapiens (Human)), query CC(=O)N(C)[C@H]1C[C@H](N2CCc3c(-c4cnc(N)nc4)nc(N4CCOCC4)nc32)C1 [Example 21] . Return the value.
(A) 5.393

(Q) Request body: readout PI3KA_FL Ki, system full-length PI3Kα (full-length p110α/p85α) (Homo sapiens (Human)), query CC(=O)N1CCCC(N2CCc3c(-c4cnc(N)nc4)nc(N4CCOCC4)nc32)C1 (racemic) [Example 51] . Return the value.
(A) 18.619

(Q) Request body: readout PI3KA_FL Ki, system full-length PI3Kα (full-length p110α/p85α) (Homo sapiens (Human)), query C[C@@H](O)C(=O)N1CC[C@H](N2CCc3c(-c4cnc(N)nc4)nc(N4CCOCC4)nc32)C1 [Example 41] . Return the value.
(A) 1.376

(Q) Request body: readout PI3KA_FL Ki, system full-length PI3Kα (full-length p110α/p85α) (Homo sapiens (Human)), query C[C@]1(O)C[C@@H](N2CCc3c(-c4cnc(N)nc4)nc(N4CCOCC4)nc32)C1 [Example 44] . Return the value.
(A) 1.965

(Q) Request body: readout PI3KA_FL Ki, system full-length PI3Kα (full-length p110α/p85α) (Homo sapiens (Human)), query Nc1ncc(-c2nc(N3CCOCC3)nc3c2CCN3C2CC(F)(F)C2)cn1 [Example 13] . Return the value.
(A) 0.307

(Q) Request body: readout PI3KA_FL Ki, system full-length PI3Kα (full-length p110α/p85α) (Homo sapiens (Human)), query CC(=O)N1C[C@@H](N2CCc3c(-c4cnc(N)nc4)nc(N4CCOCC4)nc32)[C@@H](F)C1 (single isomer, unassigned) [Example 75] . Return the value.
(A) 1.106

(Q) Request body: readout PI3KA_FL Ki, system full-length PI3Kα (full-length p110α/p85α) (Homo sapiens (Human)), query C[C@H]1COCCN1c1nc(-c2cnc(N)nc2)c2c(n1)N([C@@H]1CN(S(N)(=O)=O)C[C@H]1O)CC2 [Example 127] . Return the value.
(A) 0.789

(Q) Request body: readout PI3KA_FL Ki, system full-length PI3Kα (full-length p110α/p85α) (Homo sapiens (Human)), query C[C@H]1COCCN1c1nc(-c2cnc(N)nc2)c2c(n1)N([C@@H]1CCC(F)(F)C1)CC2 (single isomer, unassigned) [Example 88] . Return the value.
(A) 0.674

(Q) Request body: readout PI3KA_FL Ki, system full-length PI3Kα (full-length p110α/p85α) (Homo sapiens (Human)), query CC(=O)N1C[C@H](C(F)F)[C@H](N2CCc3c(-c4cnc(N)nc4)nc(N4CCOCC4)nc32)C1 [Example 56] . Return the value.
(A) 35.745

(Q) Request body: readout PI3KA_FL Ki, system full-length PI3Kα (full-length p110α/p85α) (Homo sapiens (Human)), query CNS(=O)(=O)N1CCC[C@@H](N2CCc3c(-c4cnc(N)nc4)nc(N4CCOCC4)nc32)C1 [Example 97] . Return the value.
(A) 3.632

(Q) Request body: readout PI3KA_FL Ki, system full-length PI3Kα (full-length p110α/p85α) (Homo sapiens (Human)), query CC(=O)N1C[C@H](C(F)F)[C@@H](N2CCc3c(-c4cnc(N)nc4)nc(N4CCOCC4)nc32)C1 [Example 71] . Return the value.
(A) 8.899

(Q) Request body: readout PI3KA_FL Ki, system full-length PI3Kα (full-length p110α/p85α) (Homo sapiens (Human)), query COCCOC(=O)N1CC[C@H](N2CCc3c(-c4cnc(N)nc4)nc(N4CCOC[C@@H]4C)nc32)C1 [Example 133] . Return the value.
(A) 0.468

(Q) Request body: readout PI3KA_FL Ki, system full-length PI3Kα (full-length p110α/p85α) (Homo sapiens (Human)), query CC(C)(C)NC(=O)N1CC[C@H](N2CCc3c(-c4cnc(N)nc4)nc(N4CCOCC4)nc32)C1 [Example 139] . Return the value.
(A) 0.596

(Q) Request body: readout PI3KA_FL Ki, system full-length PI3Kα (full-length p110α/p85α) (Homo sapiens (Human)), query Nc1ncc(-c2nc(N3CCOCC3)nc3c2CCN3[C@H]2C[C@@H](F)C2)cn1 [Example 64] . Return the value.
(A) 0.508

(Q) Request body: readout PI3KA_FL Ki, system full-length PI3Kα (full-length p110α/p85α) (Homo sapiens (Human)), query Nc1ncc(-c2nc(N3CCOCC3)nc3c2CCN3C2CCC(F)(F)C2)cn1 (racemic) [Example 19] . Return the value.
(A) 0.528

(Q) Request body: readout PI3KA_FL Ki, system full-length PI3Kα (full-length p110α/p85α) (Homo sapiens (Human)), query CS(=O)(=O)N[C@H]1C[C@H](N2CCc3c(-c4cnc(N)nc4)nc(N4CCOCC4)nc32)C1 [Example 105] . Return the value.
(A) 0.285

(Q) Request body: readout PI3KA_FL Ki, system full-length PI3Kα (full-length p110α/p85α) (Homo sapiens (Human)), query CS(=O)(=O)[C@H]1C[C@H](N2CCc3c(-c4cnc(N)nc4)nc(N4CCOCC4)nc32)C1 [Example 15] . Return the value.
(A) 0.856

(Q) Request body: readout PI3KA_FL Ki, system full-length PI3Kα (full-length p110α/p85α) (Homo sapiens (Human)), query Nc1ncc(-c2nc(N3CCOCC3)nc3c2CCN3C2CCOCC2)cn1 [Example 18] . Return the value.
(A) 2.706

(Q) Request body: readout PI3KA_FL Ki, system full-length PI3Kα (full-length p110α/p85α) (Homo sapiens (Human)), query Nc1ncc(-c2nc(N3CCOCC3)nc3c2CCN3[C@@H]2CCC(F)(F)C2)cn1 (single isomer, unassigned) [Example 35] . Return the value.
(A) 0.393

(Q) Request body: readout PI3KA_FL Ki, system full-length PI3Kα (full-length p110α/p85α) (Homo sapiens (Human)), query CS(=O)(=O)N1CCC[C@@H](N2CCc3c(-c4cnc(N)nc4)nc(N4CCOCC4)nc32)C1 [Example 93] . Return the value.
(A) 0.506
